Overview of recorded LD50 for various compounds
# ASSAY SUMMARY: Acute toxicity, LD50 by the Weil method, e.p. administration in mouse
# CONDITIONS: in vivo, ip, Weil method N = 4, K = 4
Respond numerically; units are mg/kg and should not be typed.

Consider the worked cases shown below.
* CC(=O)SCCC(=O)OC(CC(=O)O)C[N+](C)(C)C (stereo not drawn) | 378
* CC(=O)SC(C)CC(=O)OC(CC(=O)O)C[N+](C)(C)C (stereo not drawn) | 97

Next:
[in] // lookup LD50 for CC(=O)SCCCCC(=O)OC(CC(=O)O)C[N+](C)(C)C (stereo not drawn)
[out] 1540
